# target.or.test.system: NanoLuc VHL fusion protein stably expressed in HEK 293 cells (Homo sapiens)
# Sequence (P40337 whole entry, the tested form may be a part): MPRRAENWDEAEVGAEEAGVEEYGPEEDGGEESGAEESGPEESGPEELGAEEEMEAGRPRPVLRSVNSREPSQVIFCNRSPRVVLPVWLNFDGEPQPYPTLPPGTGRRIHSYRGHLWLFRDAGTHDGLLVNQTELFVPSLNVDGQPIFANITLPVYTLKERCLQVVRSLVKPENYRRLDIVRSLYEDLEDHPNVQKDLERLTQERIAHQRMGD
# Sequence (Q15370 whole entry partner, the tested form may be a part): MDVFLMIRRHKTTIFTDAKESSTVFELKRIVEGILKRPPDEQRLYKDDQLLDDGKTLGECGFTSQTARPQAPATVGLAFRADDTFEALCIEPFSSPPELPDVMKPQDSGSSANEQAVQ
# Sequence (Q15369 whole entry partner, the tested form may be a part): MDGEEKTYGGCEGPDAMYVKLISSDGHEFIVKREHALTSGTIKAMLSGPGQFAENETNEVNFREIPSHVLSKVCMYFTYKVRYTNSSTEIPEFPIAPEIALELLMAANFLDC
# run.description: VHL HEK-293 BRET Assay (VHL NanoBRET Target Engagement Assay)
# conditions.used: HEK293 cells, nanoBRET; geometric mean where more than one measurement; read-out: VHL binding in cells (HEK293 nanoBRET)
# Excerpt: The VHL NanoBRET™ Target Engagement Assay analyzes the apparent affinity of test compounds for VHL in cells by competitive displacement of a VHL NanoBRET™ tracer reversibly bound to a NanoLuc® VHL fusion protein stably expressed in the cells. […]
Known log10(IC50) of a selection of compounds
# log10 transformed; quantity=IC50; unit=µM

Worked set:
CNC(=O)[C@@H]1C[C@@H](O)CN1C(=O)[C@H](C(C)C)n1cc(-c2cnco2)nn1: 0.51
CC(C)(C)[C@@H](C(=O)N1C[C@H](O)C[C@H]1C(=O)NCC(F)(F)F)n1cc(C2CC2)nn1: 0.82
CNC(=O)[C@@H]1C[C@@H](O)CN1C(=O)C(n1cc(C2CC2)nn1)C1(C)CCCCC1 (stereo partly drawn): 1.02

Lookup result for CNC(=O)[C@@H]1C[C@@H](O)CN1C(=O)[C@@H](n1ccnn1)C(C)(C)C ; measured log10(IC50): 1.18

Lookup result for CNC(=O)[C@@H]1C[C@@H](O)CN1C(=O)[C@H](C(C)C)n1cc(-c2cncnc2)nn1 ; measured log10(IC50): 0.23

Lookup result for CNC(=O)[C@@H]1C[C@@H](O)CN1C(=O)[C@H](C(C)C)n1nnc2c(OC)cccc21 (single isomer, unassigned) ; measured log10(IC50): 0.41

Lookup result for CNC(=O)[C@@H]1C[C@@H](OC(C)=O)CN1C(=O)[C@@H](n1cc(C2CC2)nn1)C(C)(C)C ; measured log10(IC50): 1.80

Lookup result for CNC(=O)[C@@H]1C[C@@H](O)CN1C(=O)[C@H](C(C)C)n1cc(-c2ncco2)nn1 (single isomer, unassigned) ; measured log10(IC50): -0.04

Lookup result for CC(C)(C)[C@@H](C(=O)N1C[C@H](O)C[C@H]1C(N)=O)n1cc(C2CC2)nn1 ; measured log10(IC50): 0.30

Lookup result for CNC(=O)[C@@H]1C[C@@H](O)CN1C(=O)[C@H](C(C)C)n1cc(-c2ncccn2)nn1 ; measured log10(IC50): 1.14

Lookup result for CNC(=O)[C@@H]1C[C@@H](O)CN1C(=O)[C@H](C1CCN(C(C)=O)CC1)n1cc(C2CC2)nn1 ; measured log10(IC50): 1.84

Lookup result for CNC(=O)[C@@H]1C[C@@H](O)CN1C(=O)[C@H](C(C)C)n1cc(C2CCC2)nn1 ; measured log10(IC50): 0.45

Lookup result for CNC(=O)[C@@H]1C[C@@H](O)CN1C(=O)[C@H](C(C)C)n1cc(-c2ccccn2)nn1 ; measured log10(IC50): 0.23

Lookup result for CC(C)(C)[C@@H](C(=O)N1C[C@H](O)C[C@H]1C(=O)NC1(C(F)(F)F)CC1)n1cc(C2CC2)nn1 ; measured log10(IC50): 0.70

Lookup result for CNC(=O)[C@@H]1C[C@@H](O)CN1C(=O)[C@H](C1CCCCC1)n1cc(-c2ccco2)nn1 (single isomer, unassigned) ; measured log10(IC50): -0.49

Lookup result for CNC(=O)[C@@H]1C[C@@H](O)CN1C(=O)[C@H](C1CCCCC1)n1cc(C2CC2)nn1 ; measured log10(IC50): 0.21

Lookup result for CCNC(=O)[C@@H]1C[C@@H](O)CN1C(=O)[C@@H](n1cc(C2CC2)nn1)C(C)(C)C ; measured log10(IC50): 0.62

Lookup result for CNC(=O)[C@@H]1C[C@@H](O)CN1C(=O)[C@H](C(C)C)n1nnc2ccccc21 (single isomer, unassigned) ; measured log10(IC50): 0.33
